tested-on: Sucrase-isomaltase, intestinal (Rattus norvegicus, UniProt P23739)
Sequence (P23739 1-1013 limits assumed): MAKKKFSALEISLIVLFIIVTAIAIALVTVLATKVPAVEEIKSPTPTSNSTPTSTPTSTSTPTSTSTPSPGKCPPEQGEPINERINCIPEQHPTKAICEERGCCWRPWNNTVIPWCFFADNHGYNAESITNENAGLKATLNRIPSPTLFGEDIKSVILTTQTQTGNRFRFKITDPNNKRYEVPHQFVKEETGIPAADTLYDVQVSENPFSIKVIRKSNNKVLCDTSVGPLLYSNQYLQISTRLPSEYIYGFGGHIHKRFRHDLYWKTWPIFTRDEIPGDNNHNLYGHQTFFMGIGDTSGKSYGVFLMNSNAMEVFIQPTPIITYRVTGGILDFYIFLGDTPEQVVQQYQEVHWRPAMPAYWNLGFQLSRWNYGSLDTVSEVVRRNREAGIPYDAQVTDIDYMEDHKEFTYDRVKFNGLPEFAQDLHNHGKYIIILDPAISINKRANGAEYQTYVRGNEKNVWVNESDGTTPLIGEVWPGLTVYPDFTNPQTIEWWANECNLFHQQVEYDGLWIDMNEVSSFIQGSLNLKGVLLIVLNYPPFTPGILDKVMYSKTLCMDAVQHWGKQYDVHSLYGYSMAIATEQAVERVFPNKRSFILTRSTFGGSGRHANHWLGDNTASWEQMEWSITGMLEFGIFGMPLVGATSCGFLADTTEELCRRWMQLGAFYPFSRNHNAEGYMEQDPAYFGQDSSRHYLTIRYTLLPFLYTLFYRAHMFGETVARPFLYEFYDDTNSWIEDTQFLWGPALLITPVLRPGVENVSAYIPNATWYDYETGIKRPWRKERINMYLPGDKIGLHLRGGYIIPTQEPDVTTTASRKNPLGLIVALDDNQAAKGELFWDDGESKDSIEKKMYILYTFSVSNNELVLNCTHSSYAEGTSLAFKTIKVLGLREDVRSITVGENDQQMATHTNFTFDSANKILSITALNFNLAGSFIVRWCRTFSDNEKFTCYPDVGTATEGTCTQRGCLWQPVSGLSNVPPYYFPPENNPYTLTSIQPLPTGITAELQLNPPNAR
Sequence (P23739 1014-1841 limits assumed): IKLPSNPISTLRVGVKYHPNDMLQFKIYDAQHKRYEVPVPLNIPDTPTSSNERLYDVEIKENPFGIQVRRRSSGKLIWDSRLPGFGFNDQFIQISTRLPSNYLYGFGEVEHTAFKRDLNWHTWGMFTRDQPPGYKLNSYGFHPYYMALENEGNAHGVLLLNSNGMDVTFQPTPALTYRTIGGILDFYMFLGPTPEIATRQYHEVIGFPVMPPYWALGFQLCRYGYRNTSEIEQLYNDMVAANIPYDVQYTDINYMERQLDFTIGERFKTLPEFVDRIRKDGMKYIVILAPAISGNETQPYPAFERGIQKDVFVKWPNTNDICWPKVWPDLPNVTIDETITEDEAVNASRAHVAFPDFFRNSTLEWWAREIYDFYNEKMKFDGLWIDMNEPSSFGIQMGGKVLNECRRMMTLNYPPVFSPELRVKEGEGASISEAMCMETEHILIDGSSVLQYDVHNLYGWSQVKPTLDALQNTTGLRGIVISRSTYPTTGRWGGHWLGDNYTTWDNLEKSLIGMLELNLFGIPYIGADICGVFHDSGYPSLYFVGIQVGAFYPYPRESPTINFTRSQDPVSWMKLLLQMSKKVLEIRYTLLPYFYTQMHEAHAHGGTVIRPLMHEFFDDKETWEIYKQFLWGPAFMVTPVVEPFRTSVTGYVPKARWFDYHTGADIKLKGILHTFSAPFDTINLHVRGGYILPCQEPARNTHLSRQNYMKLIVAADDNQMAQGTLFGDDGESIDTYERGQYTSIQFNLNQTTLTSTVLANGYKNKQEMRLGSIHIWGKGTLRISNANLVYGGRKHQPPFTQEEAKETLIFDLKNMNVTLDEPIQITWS
protocol: Inhibition of rat sucrase
measured-metric: IC50 (µM)

[O-][C@@H](CO)[C@H](O)C[S+]1C[C@@H](O)[C@H](O)[C@H]1CO (some centres not stated) ... 5.2
OC[C@@H]1N[C@H](CO)[C@@H](O)[C@@H]1O ... 320

(a) O=S(=O)([O-])O[C@@H](CO)[C@H](O)C[S@+]1C[C@@H](O)[C@H](O)[C@H]1CO [SALACINOL]
(b) OC[C@@H]1N[C@@H](CO)[C@H](O)[C@H]1O
(c) OCCN1C[C@@H](O)[C@H](O)[C@H]1CO
(d) OC[C@H]1NCC[C@@H]1O
(e) OC[C@H]1N[C@H](CO)[C@@H](O)[C@@H]1O
Task item: List the 5 entries from lowest IC50 to highest IC50 value. Answer by listing the labels in the requested order.
Reply: b, a, e, c, d
